- assay_target: human GPR14 receptor (Homo sapiens, UniProt Q9UKP6)
- Sequence (Q9UKP6 whole entry): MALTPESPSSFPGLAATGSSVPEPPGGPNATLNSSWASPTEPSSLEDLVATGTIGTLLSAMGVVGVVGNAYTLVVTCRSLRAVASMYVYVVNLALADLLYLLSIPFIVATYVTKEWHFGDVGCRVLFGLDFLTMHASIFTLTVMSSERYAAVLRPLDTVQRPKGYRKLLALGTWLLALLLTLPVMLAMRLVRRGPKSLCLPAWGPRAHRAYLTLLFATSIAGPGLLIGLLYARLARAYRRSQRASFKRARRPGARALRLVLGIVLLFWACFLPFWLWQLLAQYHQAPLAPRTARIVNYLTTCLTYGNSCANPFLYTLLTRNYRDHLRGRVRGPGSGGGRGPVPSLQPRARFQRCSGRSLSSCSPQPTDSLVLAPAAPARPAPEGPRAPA
- protocol_details: FlipR test of intracellular calcium mobilization (CHO GPR14 cells, urotensin II 3 nM)
- setup_conditions: CHOGPR14 cells, inhibition of urotensin II (3 nM final) induced Ca2+ increase, Fluo-4AM
Structures can show the parent of a compound that is named as a salt.
endpoint_label: IC50
Kindly write the number and append the unit.

Cc1ccc(C)c(-c2ccc(C(=O)NC3(C(=O)O)CCCCC3)nc2-c2ccc(Cl)c(OCCCN(C)C)c2)c1; 32 nM
CCc1ccccc1-c1ccc(C(=O)NC2(C(=O)O)CCCCC2)nc1-c1ccc(Cl)c(OCCCN(C)C)c1; 13 nM
Cc1cc(C)n(-c2ccc(C(=O)NC3(C(=O)O)CCCCC3)nc2-c2ccc(Cl)c(OCCCN(C)C)c2)n1 [compound 75, hydrochloride]; 21 nM

Give IC50 (human GPR14 receptor (Homo sapiens, UniProt Q9UKP6)) of the following molecule: Cc1ccccc1-c1ccc(C(=O)NC2(C(=O)O)CCCCC2)nc1-c1ccc(Cl)c(OCCCN(C)C)c1.Cl [compound 34, hydrochloride]
25 nM

Give IC50 (human GPR14 receptor (Homo sapiens, UniProt Q9UKP6)) of the following molecule: "Cc1ncccc1-c1ccc(C(=O)NC2(C(=O)O)CCCCC2)nc1-c1ccc(Cl)c(OCCCN(C)C)c1"
9 nM

Give IC50 (human GPR14 receptor (Homo sapiens, UniProt Q9UKP6)) of the following molecule: "Cc1ccc(C(C)C)cc1-c1ccc(C(=O)NC2(C(=O)O)CCCCC2)nc1-c1ccc(Cl)c(OCCCN(C)C)c1"
16 nM

Give IC50 (human GPR14 receptor (Homo sapiens, UniProt Q9UKP6)) of the following molecule: Cc1ccccc1-c1ccc(C(=O)NC2(C(=O)O)C3CC4CC(C3)CC2C4)nc1-c1ccc(Cl)c(OCCCN(C)C)c1 (stereo not shown) [Compound No. 18, hydrochloride]
19 nM
